Ref: patent US20040097595A1

# System: Diamond Back Moth (Plutella xylostella)
# assay-comment: Test Example 1: insecticidal effect on diamond back moth, Chinese cabbage seedling with eggs immersed in liquid chemical
# Format: in vivo
# condition-label: 5 ppm; eggs on Chinese cabbage seedling immersed about 30 seconds; six days after immersion, 25° C.
# Experimental: Insecticidal Effect on Diamond Back Moth (Plutella xylostella) Adult diamond back moths were released and allowed to oviposit on a Chinese cabbage seedling. […] Six days after the immersion, the hatched insects were counted. The mortality was calculated according to the following equation and the insecticidal effect was judged according to the criterion shown below. […]
parameter: Test Example 1 insecticidal effect (mortality grade)

Illustrative cases are given below, each with its answer.
[
  {
    "compound": "CSCC(C)(C)NC(=O)c1c(I)cccc1C(=O)Nc1ccc(Oc2ccc(C(F)(F)F)cn2)cc1Cl",
    "observed-measurement": "A (Mortality 100%)"
  },
  {
    "compound": "C[S+]([O-])CC(C)(C)NC(=O)c1c(I)cccc1C(=O)Nc1ccc(OC(F)(F)C(F)C(F)(F)F)cc1Cl (centres unmarked)",
    "observed-measurement": "A (Mortality 100%)"
  },
  {
    "compound": "CSCC(C)(C)NC(=O)c1c(I)cccc1C(=O)Nc1ccc(OC(F)(F)C(F)C(F)(F)F)c(Cl)c1Cl (centres unmarked) [Compound 1-66]",
    "observed-measurement": "E (Mortality 49-0%)"
  },
  {
    "compound": "C[S+]([O-])CC(C)(C)NC(=O)c1c(I)cccc1C(=O)Nc1ccc(OC(F)(F)C(F)OC(F)(F)C(F)(F)C(F)(F)F)cc1Cl (centres unmarked)",
    "observed-measurement": "A (Mortality 100%)"
  }
]

Tested on Diamond Back Moth (Plutella xylostella): CC(C)(CS(C)(=O)=O)NC(=O)c1c(I)cccc1C(=O)Nc1ccc(Oc2ncc(C(F)(F)F)cc2Cl)cc1Cl . Observed Test Example 1 insecticidal effect (mortality grade): A (Mortality 100%)

Tested on Diamond Back Moth (Plutella xylostella): CSCC(C)(C)NC(=O)c1c(I)cccc1C(=O)Nc1ccc(OC(F)(F)C(F)OC(F)(F)C(F)(F)C(F)(F)F)c(Cl)c1Cl (centres unmarked) . Observed Test Example 1 insecticidal effect (mortality grade): E (Mortality 49-0%)

Tested on Diamond Back Moth (Plutella xylostella): CSCC(C)(C)NC(=O)c1c(I)cccc1C(=O)Nc1ccc(Oc2ncc(C(F)(F)F)cc2Cl)cc1Cl . Observed Test Example 1 insecticidal effect (mortality grade): A (Mortality 100%)

Tested on Diamond Back Moth (Plutella xylostella): CSCC(C)(C)NC(=O)c1c(I)cccc1C(=O)Nc1ccc(OC(F)(F)C(F)OC(F)(F)F)cc1Cl (centres unmarked) . Observed Test Example 1 insecticidal effect (mortality grade): A (Mortality 100%)

Tested on Diamond Back Moth (Plutella xylostella): CSCC(C)(C)NC(=O)c1c(I)cccc1C(=O)Nc1ccc(SC(F)F)cc1Cl . Observed Test Example 1 insecticidal effect (mortality grade): A (Mortality 100%)

Tested on Diamond Back Moth (Plutella xylostella): CC(C)(CS(C)(=O)=O)NC(=O)c1c(I)cccc1C(=O)Nc1ccc(Oc2ncc(C(F)(F)F)cc2Cl)c(Cl)c1Cl . Observed Test Example 1 insecticidal effect (mortality grade): A (Mortality 100%)

Tested on Diamond Back Moth (Plutella xylostella): CSCC(C)(C)NC(=O)c1c(I)cccc1C(=O)Nc1ccc(OC(F)(F)C(F)Cl)cc1Cl (centres unmarked) . Observed Test Example 1 insecticidal effect (mortality grade): E (Mortality 49-0%)

Tested on Diamond Back Moth (Plutella xylostella): C[S+]([O-])CC(C)(C)NC(=O)c1c(I)cccc1C(=O)Nc1ccc(Oc2ncc(C(F)(F)F)cc2Cl)cc1Cl (centres unmarked) . Observed Test Example 1 insecticidal effect (mortality grade): A (Mortality 100%)

Tested on Diamond Back Moth (Plutella xylostella): CSCC(C)(C)NC(=O)c1c(I)cccc1C(=O)Nc1ccc(Oc2c(Cl)cc(C(F)(F)F)c(F)c2Cl)cc1Cl . Observed Test Example 1 insecticidal effect (mortality grade): A (Mortality 100%)

Tested on Diamond Back Moth (Plutella xylostella): C[S+]([O-])CC(C)(C)NC(=O)c1c(I)cccc1C(=O)Nc1ccc(OC(F)(F)C(F)OC(F)(F)C(F)(F)C(F)(F)F)c(Cl)c1Cl (centres unmarked) . Observed Test Example 1 insecticidal effect (mortality grade): A (Mortality 100%)

Tested on Diamond Back Moth (Plutella xylostella): CSCC(C)(C)NC(=O)c1c(I)cccc1C(=O)Nc1ccc(C(F)(F)F)cc1Cl . Observed Test Example 1 insecticidal effect (mortality grade): A (Mortality 100%)

Tested on Diamond Back Moth (Plutella xylostella): CSCC(C)(C)NC(=O)c1c(I)cccc1C(=O)Nc1ccc(Oc2ncc(C(F)(F)F)cc2Cl)c(Cl)c1Cl . Observed Test Example 1 insecticidal effect (mortality grade): A (Mortality 100%)

Tested on Diamond Back Moth (Plutella xylostella): CC(C)(CS(C)(=O)=O)NC(=O)c1c(I)cccc1C(=O)Nc1ccc(C(F)(F)F)cc1Cl . Observed Test Example 1 insecticidal effect (mortality grade): A (Mortality 100%)

Tested on Diamond Back Moth (Plutella xylostella): CSCC(C)(C)NC(=O)c1c(I)cccc1C(=O)Nc1ccc(OC(F)(F)C(F)OC(F)(F)C(F)(F)C(F)(F)F)cc1Cl (centres unmarked) . Observed Test Example 1 insecticidal effect (mortality grade): A (Mortality 100%)

Tested on Diamond Back Moth (Plutella xylostella): CC(C)(CS(C)(=O)=O)NC(=O)c1c(I)cccc1C(=O)Nc1ccc(OC(F)(F)C(F)OC(F)(F)C(F)(F)C(F)(F)F)c(Cl)c1Cl (centres unmarked) . Observed Test Example 1 insecticidal effect (mortality grade): A (Mortality 100%)

Tested on Diamond Back Moth (Plutella xylostella): CSCC(C)(C)NC(=O)c1c(I)cccc1C(=O)Nc1ccc(OC(C(F)(F)F)C(F)(F)F)cc1Cl . Observed Test Example 1 insecticidal effect (mortality grade): A (Mortality 100%)
